system: SK-MEL-5 MLANA mRNA qPCR, delta delta Ct, overnight; assay: inhibitors of MLANA mRNA expression, dose response, cell-based, RT-qPCR, SK-MEL-5, dry powder (AID 651795)
Records with an inconclusive call do not appear.
observed.property: AC40

smiles.structure	result
Cc1ccc(NC2=CC(=O)c3ccccc3C2=O)cc1	0.745 µM
CCN1CCN(C2=C(Nc3ccc(F)cc3F)C(=O)c3ccccc3C2=O)CC1	2.48 µM
NC1=C(NS(=O)(=O)c2cccs2)C(=O)c2ccccc2C1=O	2.27 µM
O=C1C(Nc2ccc(Br)cc2)=C(N2CCCCC2)C(=O)c2ccccc21	14.3 µM
O=C1C(Nc2ccc(F)cc2)=C(N2CCCCC2)C(=O)c2ccccc21	9.24 µM
O=C1C(Nc2ccc(Cl)cc2)=C(N2CCCC2)C(=O)c2ccccc21	8.64 µM
NC1=CC(=O)c2ccccc2C1=O	0.813 µM
Cc1nc2ccccc2n1/N=C/c1ccc([N+](=O)[O-])s1	2.75 µM
COc1ccc(NC2=C(N3CCCCC3)C(=O)c3ccccc3C2=O)cc1	11 µM
NC1=C(NS(=O)(=O)c2ccccc2)C(=O)c2ccccc2C1=O	4.5 µM
O=C1C=C(NS(=O)(=O)c2ccccc2)C(=O)c2ccccc21	1.36 µM
